# credit: ChEMBL document CHEMBL3882724

inhibition at 20 h values for the compounds below.
Tgt: CYP21 (steroid 21-hydroxylase) (Homo sapiens)
Sequence (P08686 whole entry): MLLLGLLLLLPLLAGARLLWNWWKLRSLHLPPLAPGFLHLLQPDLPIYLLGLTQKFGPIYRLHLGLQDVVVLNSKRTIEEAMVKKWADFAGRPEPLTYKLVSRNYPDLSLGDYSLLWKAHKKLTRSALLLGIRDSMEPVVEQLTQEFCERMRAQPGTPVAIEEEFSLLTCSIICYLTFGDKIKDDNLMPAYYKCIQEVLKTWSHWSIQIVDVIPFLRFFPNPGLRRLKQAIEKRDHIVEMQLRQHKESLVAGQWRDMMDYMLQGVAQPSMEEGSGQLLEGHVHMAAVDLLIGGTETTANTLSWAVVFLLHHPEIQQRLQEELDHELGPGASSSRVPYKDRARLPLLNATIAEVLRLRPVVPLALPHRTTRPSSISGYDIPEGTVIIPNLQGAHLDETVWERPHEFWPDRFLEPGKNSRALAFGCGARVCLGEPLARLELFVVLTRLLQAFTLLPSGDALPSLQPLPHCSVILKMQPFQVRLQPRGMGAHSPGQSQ
Protocol description: Inhibition of human CYP21 transfected in HEK293 cells assessed as decrease in conversion of progesterone to 11-deoxycorticosterone preincubated for 5 hrs followed by progesterone addition measured after 20 hrs by ELISA
Assay type: cell-based
Design: concentration or dose not given beside the values
Test conditions: HEK293 cells transfected with human CYP21, probe progesterone

Known results for compounds:
In [3]: df
Out[3]:
                                   compound  assay_result
0  CC1C[C@H]2[C@@H]3CC=C(c4cncc(F)c4)[C@@]3(C)CC[C@@H]2[C@@]2(C)CC[C@H](O)CC12O (some centres undefined)     10 to 50%
1  Cc1ccncc1C1=CC=C2[C@@H]3CC[C@H]4CC(=O)NCC[C@]4(C)[C@H]3CC[C@]12C     10 to 50%
2  Cc1ccncc1C1=CC=C2[C@@H]3CCC4CC(=O)CC[C@]4(C)[C@H]3CC[C@]12C (some centres undefined)     10 to 50%
3  Cc1cncc(C2=CC[C@H]3[C@@H]4CC=C5C[C@H](NC(=O)C6CC6)CC[C@]5(C)[C@H]4CC[C@]23C)c1         ≥ 50%
4  C[C@]12CC[C@H]3[C@@H](CC4OC45C[C@@H](O)CC[C@]35C)C1=CC=C2c1cccnc1 (some centres undefined)         ≥ 50%

Kindly indicate its recorded inhibition at 20 h. Item: CC1C[C@@H]2[C@H](CC[C@]3(C)C(c4cncc(F)c4)=CC[C@@H]23)[C@@]2(C)CCC(=O)C=C12 (some centres undefined)
≥ 50%

Kindly indicate its recorded inhibition at 20 h. Item: CC1C[C@@H]2[C@H](CC[C@]3(C)C(c4cncc(F)c4)=CC[C@@H]23)[C@@]2(C)C=CC(=O)C=C12 (some centres undefined)
≥ 50%

Kindly indicate its recorded inhibition at 20 h. Item: CO[C@H]1CC[C@@]2(C)[C@@H](CC[C@@H]3[C@@H]2CC[C@]2(C)C(c4cnccc4C)=CC[C@@H]32)C1
10 to 50%

Kindly indicate its recorded inhibition at 20 h. Item: C[C@]12CC[C@H]3[C@@H](CC=C4C[C@@H](O)CC[C@@]43C)C1=CC=C2c1cncc(Cl)c1
10 to 50%
